# test-protocol: xn = mol fraction of the nth substance listed, in the solute-free solvent
# conditions: 283.15 K; x2 = 0.3103
# solubility (g/100 g solution) >= 0.7 gives satisfied, anything below gives not satisfied

# molecule, cat
data = [
    ("CN1CCC(N(Cc2cccs2)c2ccccc2)CC1 + CC(C)O + O", "satisfied"),
    ("Nc1cccc2ccncc12 + CCCO + O", "satisfied"),
    ("Nc1cccc2ccncc12 + CC(C)O + O", "not satisfied"),
    ("Cc1ccc2cc(Br)ccc2n1 + CC(C)O + O", "not satisfied"),
]

Kindly consider the entry below.
Record CN1CCC(N(Cc2cccs2)c2ccccc2)CC1 + CCCO + O ; criterion: solubility (g/100 g solution) no lower than 0.7. Met?
satisfied

====

Reported solubility (g/100 g solution) is given for each of the following molecules.
# test-protocol: xn = mol fraction of the nth substance listed, in the solute-free solvent
# conditions: 283.15 K; x2 = 0.03225
Lab note: write the figure by itself, no unit.

# molecule, solubility (g/100 g solution)
rows = [
    ("CN1CCC(N(Cc2cccs2)c2ccccc2)CC1 + CCCO + O", 0.176),
]

Name the reported solubility (g/100 g solution) value associated with the molecule CN1CCC(N(Cc2cccs2)c2ccccc2)CC1 + CC(C)O + O
0.15

Name the reported solubility (g/100 g solution) value associated with the molecule Nc1cccc2ccncc12 + CCCO + O
0.0931

Name the reported solubility (g/100 g solution) value associated with the molecule Nc1cccc2ccncc12 + CC(C)O + O
0.0813

Name the reported solubility (g/100 g solution) value associated with the molecule Cc1ccc2cc(Br)ccc2n1 + CC(C)O + O
0.0553

====

# test-protocol: xn = mol fraction of the nth substance listed, in the solute-free solvent
# conditions: 323.15 K; x2 = 0.03225
# solubility (g/100 g solution) >= 0.3 gives T, anything below gives F

# compound, cat
records = [
    ("Nc1cccc2ccncc12 + CC(C)O + O", "F"),
]

Record Cc1ccc2cc(Br)ccc2n1 + CC(C)O + O ; criterion: solubility (g/100 g solution) no lower than 0.3. Met?
F

Record Nc1cccc2ccncc12 + CCCO + O ; criterion: solubility (g/100 g solution) no lower than 0.3. Met?
F

Record CN1CCC(N(Cc2cccs2)c2ccccc2)CC1 + CCCO + O ; criterion: solubility (g/100 g solution) no lower than 0.3. Met?
T

====

# test-protocol: xn = mol fraction of the nth substance listed, in the solute-free solvent
# conditions: 318.15 K; x2 = 0.1666
endpoint-name: solubility (g/100 g solution)
Lab note: write the figure by itself, no unit.

# compound, result-number
measured = [
    ("Nc1cccc2ccncc12 + CCCO + O", 1.27),
]

Name the reported solubility (g/100 g solution) value associated with the compound Nc1cccc2ccncc12 + CC(C)O + O
1.03

Name the reported solubility (g/100 g solution) value associated with the compound CN1CCC(N(Cc2cccs2)c2ccccc2)CC1 + CCCO + O
1.88

Name the reported solubility (g/100 g solution) value associated with the compound CN1CCC(N(Cc2cccs2)c2ccccc2)CC1 + CC(C)O + O
1.51

Name the reported solubility (g/100 g solution) value associated with the compound Cc1ccc2cc(Br)ccc2n1 + CC(C)O + O
1.06

====

# test-protocol: xn = mol fraction of the nth substance listed, in the solute-free solvent
# conditions: 323.15 K; x2 = 0.1139
endpoint-name: solubility (g/100 g solution)
Lab note: write the figure by itself, no unit.

Example entries and their recorded answers appear below.
# compound, solubility (g/100 g solution)
records = [
    ("Nc1cccc2ccncc12 + CCCO + O", 0.997),
    ("CN1CCC(N(Cc2cccs2)c2ccccc2)CC1 + CCCO + O", 1.41),
    ("Nc1cccc2ccncc12 + CC(C)O + O", 0.808),
    ("CN1CCC(N(Cc2cccs2)c2ccccc2)CC1 + CC(C)O + O", 1.13),
]

Turning to the following compound.
Name the reported solubility (g/100 g solution) value associated with the compound Cc1ccc2cc(Br)ccc2n1 + CC(C)O + O
0.837

====

# test-protocol: xn = mol fraction of the nth substance listed, in the solute-free solvent
# conditions: 308.15 K; x2 = 0.4117
# solubility (g/100 g solution) >= 2 gives Yes, anything below gives No

Use these answered entries as a reference point.
# compound, cat
rows = [
    ("Cc1ccc2cc(Br)ccc2n1 + CC(C)O + O", "No"),
    ("Nc1cccc2ccncc12 + CCCO + O", "No"),
    ("Nc1cccc2ccncc12 + CC(C)O + O", "No"),
    ("CN1CCC(N(Cc2cccs2)c2ccccc2)CC1 + CCCO + O", "Yes"),
]

Kindly consider the entry below.
Record CN1CCC(N(Cc2cccs2)c2ccccc2)CC1 + CC(C)O + O ; criterion: solubility (g/100 g solution) no lower than 2. Met?
Yes

====

# test-protocol: xn = mol fraction of the nth substance listed, in the solute-free solvent
# conditions: 288.15 K; x2 = 0.3103
# solubility (g/100 g solution) >= 0.9 gives YES, anything below gives NO

# compound, cat
rows = [
    ("CN1CCC(N(Cc2cccs2)c2ccccc2)CC1 + CC(C)O + O", "YES"),
    ("CN1CCC(N(Cc2cccs2)c2ccccc2)CC1 + CCCO + O", "YES"),
    ("Nc1cccc2ccncc12 + CCCO + O", "NO"),
    ("Nc1cccc2ccncc12 + CC(C)O + O", "NO"),
]

Kindly consider the entry below.
Record Cc1ccc2cc(Br)ccc2n1 + CC(C)O + O ; criterion: solubility (g/100 g solution) no lower than 0.9. Met?
NO

====

# test-protocol: xn = mol fraction of the nth substance listed, in the solute-free solvent
# conditions: 323.15 K; x2 = 0.5454
Reported solubility (g/100 g solution) is given for each of the following compounds.
Lab note: write the figure by itself, no unit.

Example entries and their recorded answers appear below.
# compound, solubility (g/100 g solution)
rows = [
    ("Nc1cccc2ccncc12 + CCCO + O", 3.21),
    ("Nc1cccc2ccncc12 + CC(C)O + O", 2.69),
    ("Cc1ccc2cc(Br)ccc2n1 + CC(C)O + O", 2.48),
    ("CN1CCC(N(Cc2cccs2)c2ccccc2)CC1 + CCCO + O", 4.32),
]

Turning to the following compound.
Name the reported solubility (g/100 g solution) value associated with the compound CN1CCC(N(Cc2cccs2)c2ccccc2)CC1 + CC(C)O + O
3.42

====

Reported solubility (g/100 g solution) is given for each of the following molecules.
# test-protocol: xn = mol fraction of the nth substance listed, in the solute-free solvent
# conditions: 323.15 K; x2 = 0.06974

# molecule, solubility (g/100 g solution)
data = [
    ("CN1CCC(N(Cc2cccs2)c2ccccc2)CC1 + CCCO + O", 0.808),
    ("Cc1ccc2cc(Br)ccc2n1 + CC(C)O + O", 0.457),
]

Name the reported solubility (g/100 g solution) value associated with the molecule CN1CCC(N(Cc2cccs2)c2ccccc2)CC1 + CC(C)O + O
0.656

Name the reported solubility (g/100 g solution) value associated with the molecule Nc1cccc2ccncc12 + CC(C)O + O
0.489

Name the reported solubility (g/100 g solution) value associated with the molecule Nc1cccc2ccncc12 + CCCO + O
0.589

====

Reported solubility (g/100 g solution) is given for each of the following molecules.
# test-protocol: xn = mol fraction of the nth substance listed, in the solute-free solvent
# conditions: 323.15 K; x2 = 0.4117
Lab note: write the figure by itself, no unit.

Example entries and their recorded answers appear below.
# molecule, result-number
rows = [
    ("Nc1cccc2ccncc12 + CCCO + O", 2.82),
    ("CN1CCC(N(Cc2cccs2)c2ccccc2)CC1 + CC(C)O + O", 3.04),
    ("Nc1cccc2ccncc12 + CC(C)O + O", 2.35),
    ("Cc1ccc2cc(Br)ccc2n1 + CC(C)O + O", 2.06),
]

Name the reported solubility (g/100 g solution) value associated with the molecule CN1CCC(N(Cc2cccs2)c2ccccc2)CC1 + CCCO + O
3.75

====

# test-protocol: xn = mol fraction of the nth substance listed, in the solute-free solvent
# conditions: 298.15 K; x2 = 0.7297
Reported solubility (g/100 g solution) is given for each of the following molecules.
Lab note: write the figure by itself, no unit.

# molecule, result-number
measured = [
    ("Cc1ccc2cc(Br)ccc2n1 + CC(C)O + O", 1.33),
    ("CN1CCC(N(Cc2cccs2)c2ccccc2)CC1 + CCCO + O", 2.97),
    ("CN1CCC(N(Cc2cccs2)c2ccccc2)CC1 + CC(C)O + O", 2.35),
    ("Nc1cccc2ccncc12 + CCCO + O", 1.64),
]

Turning to the following molecule.
Name the reported solubility (g/100 g solution) value associated with the molecule Nc1cccc2ccncc12 + CC(C)O + O
1.31
